- testedOn: STK17B (Homo sapiens)
- Sequence (O94768 1-372): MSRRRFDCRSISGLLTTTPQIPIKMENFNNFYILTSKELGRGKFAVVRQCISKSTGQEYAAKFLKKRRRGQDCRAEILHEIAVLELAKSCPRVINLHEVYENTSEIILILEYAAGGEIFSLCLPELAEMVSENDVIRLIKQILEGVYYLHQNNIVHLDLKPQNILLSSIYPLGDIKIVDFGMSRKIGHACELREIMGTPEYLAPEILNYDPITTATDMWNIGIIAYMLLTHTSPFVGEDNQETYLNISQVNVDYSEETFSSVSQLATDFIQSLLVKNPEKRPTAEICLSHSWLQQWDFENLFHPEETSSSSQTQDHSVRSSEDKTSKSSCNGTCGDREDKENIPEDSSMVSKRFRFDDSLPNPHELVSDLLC
endpoint: pIC50
Would you please state pIC50, meaning minus log10 of the concentration in mol/L, as a bare number?

Enquiry: State its pIC50: O=C(O)CSc1ncnc2cc(-c3cc4ccccc4s3)sc12 [Compound 11s]
Return: 7.37

FYI, the data here is from paper PMC7816213.
